Collected inhibition values appear next to each entry.
measurement-target: α1G T-type calcium channel (Homo sapiens, UniProt O43497)
Sequence (O43497 whole entry): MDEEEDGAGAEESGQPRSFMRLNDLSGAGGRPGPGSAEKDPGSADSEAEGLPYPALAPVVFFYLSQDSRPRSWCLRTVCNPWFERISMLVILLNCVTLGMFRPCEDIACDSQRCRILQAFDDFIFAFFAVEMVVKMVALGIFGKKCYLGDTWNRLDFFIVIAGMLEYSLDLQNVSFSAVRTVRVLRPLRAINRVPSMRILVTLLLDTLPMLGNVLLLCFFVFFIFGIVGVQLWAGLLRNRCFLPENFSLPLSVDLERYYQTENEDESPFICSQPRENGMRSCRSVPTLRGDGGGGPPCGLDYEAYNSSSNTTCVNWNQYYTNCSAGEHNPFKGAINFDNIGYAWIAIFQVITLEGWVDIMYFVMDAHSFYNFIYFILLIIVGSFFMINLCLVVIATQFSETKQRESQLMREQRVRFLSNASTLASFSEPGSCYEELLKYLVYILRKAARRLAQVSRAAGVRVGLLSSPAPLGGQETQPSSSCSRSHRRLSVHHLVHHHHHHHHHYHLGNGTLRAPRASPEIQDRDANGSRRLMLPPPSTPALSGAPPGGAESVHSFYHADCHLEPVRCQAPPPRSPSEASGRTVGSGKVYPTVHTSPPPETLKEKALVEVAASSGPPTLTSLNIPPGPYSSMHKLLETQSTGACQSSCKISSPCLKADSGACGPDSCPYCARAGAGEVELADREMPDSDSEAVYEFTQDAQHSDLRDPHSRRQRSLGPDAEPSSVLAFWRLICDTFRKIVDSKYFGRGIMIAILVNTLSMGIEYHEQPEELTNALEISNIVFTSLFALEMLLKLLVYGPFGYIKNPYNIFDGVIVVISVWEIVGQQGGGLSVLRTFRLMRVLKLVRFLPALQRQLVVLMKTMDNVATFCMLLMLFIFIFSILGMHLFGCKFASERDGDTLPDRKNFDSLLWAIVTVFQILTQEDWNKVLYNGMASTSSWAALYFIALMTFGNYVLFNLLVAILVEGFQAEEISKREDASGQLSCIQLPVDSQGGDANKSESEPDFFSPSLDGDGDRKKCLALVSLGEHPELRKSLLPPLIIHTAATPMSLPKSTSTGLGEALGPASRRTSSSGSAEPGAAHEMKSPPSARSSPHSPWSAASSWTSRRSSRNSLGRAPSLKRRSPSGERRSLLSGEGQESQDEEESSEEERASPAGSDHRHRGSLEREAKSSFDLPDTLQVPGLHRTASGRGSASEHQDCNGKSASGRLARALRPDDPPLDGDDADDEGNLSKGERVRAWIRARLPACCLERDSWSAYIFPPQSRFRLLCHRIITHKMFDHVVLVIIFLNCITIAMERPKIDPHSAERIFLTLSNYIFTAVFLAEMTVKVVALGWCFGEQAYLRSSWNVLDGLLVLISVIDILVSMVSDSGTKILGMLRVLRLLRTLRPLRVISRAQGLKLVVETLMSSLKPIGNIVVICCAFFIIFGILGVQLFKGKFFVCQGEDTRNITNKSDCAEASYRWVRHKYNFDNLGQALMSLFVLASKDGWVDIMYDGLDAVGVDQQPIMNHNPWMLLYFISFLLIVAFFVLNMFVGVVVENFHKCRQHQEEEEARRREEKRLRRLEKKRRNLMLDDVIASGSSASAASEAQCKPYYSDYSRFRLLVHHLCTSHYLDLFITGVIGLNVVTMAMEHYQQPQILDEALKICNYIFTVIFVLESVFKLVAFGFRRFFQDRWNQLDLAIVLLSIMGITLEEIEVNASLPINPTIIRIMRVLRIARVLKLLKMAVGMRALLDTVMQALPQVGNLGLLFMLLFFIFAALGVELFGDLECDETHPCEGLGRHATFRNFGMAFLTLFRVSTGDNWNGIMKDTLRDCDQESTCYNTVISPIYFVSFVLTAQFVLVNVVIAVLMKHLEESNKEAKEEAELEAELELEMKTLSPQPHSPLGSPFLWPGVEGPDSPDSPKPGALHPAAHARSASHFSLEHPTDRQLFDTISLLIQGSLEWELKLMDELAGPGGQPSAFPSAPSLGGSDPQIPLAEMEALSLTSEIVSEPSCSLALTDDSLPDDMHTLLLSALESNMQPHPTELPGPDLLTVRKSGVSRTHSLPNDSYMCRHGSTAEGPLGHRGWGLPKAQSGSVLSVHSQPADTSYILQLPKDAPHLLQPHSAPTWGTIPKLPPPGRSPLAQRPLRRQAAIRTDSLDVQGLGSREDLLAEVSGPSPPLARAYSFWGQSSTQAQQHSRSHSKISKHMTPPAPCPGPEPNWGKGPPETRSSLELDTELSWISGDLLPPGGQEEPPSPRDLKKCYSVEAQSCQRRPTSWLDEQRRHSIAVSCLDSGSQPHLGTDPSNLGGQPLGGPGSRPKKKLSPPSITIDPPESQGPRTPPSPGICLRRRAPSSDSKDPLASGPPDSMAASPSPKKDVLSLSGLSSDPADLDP
assay-explanation: Assay for T-type calcium channel inhibition activity (FDSS6000 calcium imaging, KCl activation)
Type: cell-based
particulars: 75 s pre-treatment then KCl 75 mM, HEK293 cells expressing α1G T-type calcium channel and Kir2.1
Write it as a number; the unit % goes unstated.

# count of solved cases: 7
[
  {
    "query-smiles": "CC(C)Cc1cc(CNC(=O)CN2CCN(C[C@H](O)COc3ccc(C(F)(F)F)cc3)CC2)nn1-c1cc(Cl)cc(Cl)c1",
    "observable": "inhibition",
    "endpoint-value": 35.8
  },
  {
    "query-smiles": "O[C@H](COc1ccc(F)cc1)CN1CCC(N2CCCC2)CC1",
    "observable": "inhibition",
    "endpoint-value": -0.06
  },
  {
    "query-smiles": "Cc1ccc(CNC(=O)CN2CCN(C[C@@H](O)COc3ccc(C)cc3)CC2)cc1",
    "observable": "inhibition",
    "endpoint-value": 28.6
  },
  {
    "query-smiles": "O[C@@H](COc1ccc(C(F)(F)F)cc1)CN1CCC(N2CCOCC2)CC1",
    "observable": "inhibition",
    "endpoint-value": 12.5
  },
  {
    "query-smiles": "O[C@H](COc1ccc(F)cc1)CN1CCC(F)(F)CC1",
    "observable": "inhibition",
    "endpoint-value": 17.3
  },
  {
    "query-smiles": "O=C(CN1CCN(C[C@H](O)COc2ccc(C(F)(F)F)cc2)CC1)NC1CCCCC1",
    "observable": "inhibition",
    "endpoint-value": 43.1
  },
  {
    "query-smiles": "CC(C)Cc1cc(CNC(=O)CN2CCN(C[C@@H](O)COc3ccc(F)cc3)CC2)nn1-c1ccccc1",
    "observable": "inhibition",
    "endpoint-value": 77.4
  }
]

Here is another molecule to look at.
Tell me its inhibition given O[C@H](COc1ccc(C(F)(F)F)cc1)CN1CCC(N2CCOCC2)CC1 as the entry.
10.1

Every entry's value here was drawn from patent US9458120B2.
